Target: T1, monomeric human TIGIT (Sino Biological 10917-H08H) (human, UniProt Q495A1 22-138, biotinylated in the MSD-SET assay)
T1 construct: Bought protein; also called Human TIGIT monomer; Human TIGIT-His; not shown: His tag
T1 sequence: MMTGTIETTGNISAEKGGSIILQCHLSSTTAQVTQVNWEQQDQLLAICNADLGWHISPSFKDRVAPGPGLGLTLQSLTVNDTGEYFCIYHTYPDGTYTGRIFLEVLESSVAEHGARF
Assay: BLI (ForteBio), IgG on sensor, monovalent
Answer each item with its documented Kd.
A complete answer gives the number followed by the unit.

What does the data say about its Kd? Entry: Clone 25A (antibody, V domains shown) VH: QVQLVQSGAEVKKPGASVKVSCKASGYTFTSYAISWVRQAPGQGLEWMGWISAYNGNTKYAQKLQGRVTMTTDTSTSTAYMELRSLRSDDTAVYYCARDLSSFWSGDVLGAFDIWGQGTMVTVSS VL: DIQMTQSPSSLSASVGDRVTITCRASQSISSYLNWYQQKPGKAPKLLIYAASSLQSGVPSRFSGSGSGTDFTLTISSLQPEDFATYYCQQSVPPRTFGGGTKVEIK
1.1 nM

What does the data say about its Kd? Entry: Clone 16C (antibody, V domains shown) VH: QVQLVQSGAEVKKPGSSVKVSCKASGGTFREYAISWVRQAPGQGLEWMGGIHPIFGTARYAQKFQGRVTITADESTSTAYMELSSLRSEDTAVYYCTRQSTWHKLYGTDVWGQGTTVTVSS VL: DIQMTQSPSSVSASVGDRVTITCRASQGISSWLAWYQQKPGKAPKLLIYAASSLQSGVPSRFSGSGSGTDFTLTISSLQPEDFATYYCQQGDSLPPTFGGGTKVEIK
0.911 nM

What does the data say about its Kd? Entry: Clone 25 (antibody, V domains shown, Fully human IgG produced in yeast; also called anti-TIGIT clone 25) VH: QVQLVQSGAEVKKPGASVKVSCKASGYTFTSYAISWVRQAPGQGLEWMGWISAYNGNTNYAQKLQGRVTMTTDTSTSTAYMELRSLRSDDTAVYYCARDLSSFWSGDVLGAFDIWGQGTMVTVSS VL: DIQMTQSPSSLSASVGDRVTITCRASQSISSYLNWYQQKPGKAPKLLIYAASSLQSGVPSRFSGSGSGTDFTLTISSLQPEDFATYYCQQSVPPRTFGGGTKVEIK
1.27 nM

What does the data say about its Kd? Entry: Clone 25E (antibody, V domains shown) VH: QVQLVQSGAEVKKPGASVKVSCKASGYTFTSYAIAWVRQAPGQGLEWMGWISAYNGNTNYAQKLQGRVTMTTDTSTSTAYMELRSLRSDDTAVYYCARSGSSFWSGDVLGAFDIWGQGTMVTVSS VL: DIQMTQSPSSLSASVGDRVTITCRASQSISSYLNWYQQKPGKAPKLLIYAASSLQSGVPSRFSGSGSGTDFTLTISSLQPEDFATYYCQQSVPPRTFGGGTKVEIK
0.851 nM

What does the data say about its Kd? Entry: Clone 25C (antibody, V domains shown) VH: QVQLVQSGAEVKKPGASVKVSCKASGYTFTSYPIGWVRQAPGQGLEWMGWISSYNGNTNYAQKLQGRVTMTTDTSTSTAYMELRSLRSDDTAVYYCARGASSFWSGDVLGAFDIWGQGTMVTVSS VL: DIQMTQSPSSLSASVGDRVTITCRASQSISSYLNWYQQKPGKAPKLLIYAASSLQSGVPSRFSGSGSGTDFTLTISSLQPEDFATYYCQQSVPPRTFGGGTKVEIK
0.697 nM

What does the data say about its Kd? Entry: Clone 25B (antibody, V domains shown) VH: QVQLVQSGAEVKKPGASVKVSCKASGYTFTSYPIGWVRQAPGQGLEWMGWISSYNGNTNYAQKLQGRVTMTTDTSTSTAYMELRSLRSDDTAVYYCARDLSSFWSGDVLGAFDIWGQGTMVTVSS VL: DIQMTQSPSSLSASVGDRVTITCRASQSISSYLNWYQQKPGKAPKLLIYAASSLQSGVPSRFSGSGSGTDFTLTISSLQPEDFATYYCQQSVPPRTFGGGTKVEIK
1.16 nM

What does the data say about its Kd? Entry: Clone 25D (antibody, V domains shown) VH: QVQLVQSGAEVKKPGASVKVSCKASGYTFTSYPIGWVRQAPGQGLEWMGWISSYNGNTNYAQKLQGRVTMTTDTSTSTAYMELRSLRSDDTAVYYCARDLKSFWSGDVLGAFDIWGQGTMVTVSS VL: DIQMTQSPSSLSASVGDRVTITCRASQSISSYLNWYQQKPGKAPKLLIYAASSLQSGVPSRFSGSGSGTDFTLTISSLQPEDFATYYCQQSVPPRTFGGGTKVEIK
0.846 nM

Attribution: patent US20230050440A1
